test: Bioavailability as maximal plasma concentration in dogs
Type: ADME, organism-based, Canis lupus familiaris
test_conditions: dog
test_readout: Cmax (nM)
Your answer is read as nM, so omit the unit and give the number.

Quick one: Cmax for O=C1N(CC2CC2)[C@H](Cc2ccccc2)[C@H](O)[C@@H](O)[C@@H](Cc2ccccc2)N1CC1CC1 ?
9200

Quick one: Cmax for O=C1N(Cc2ccc(CO)cc2)[C@H](Cc2ccccc2)[C@H](O)[C@@H](O)[C@@H](Cc2ccccc2)N1Cc1ccc(CO)cc1 ?
2800

Quick one: Cmax for O=C1N(Cc2cccc(O)c2)[C@H](Cc2ccccc2)[C@H](O)[C@@H](O)[C@@H](Cc2ccccc2)N1Cc1ccc2ccccc2c1 ?
2700

Quick one: Cmax for O=C1N(Cc2cccc(O)c2)[C@H](Cc2ccccc2)[C@H](O)[C@@H](O)[C@@H](Cc2ccccc2)N1Cc1cccc(O)c1 ?
2000
